B1: glmS ribozyme (parent)
chain: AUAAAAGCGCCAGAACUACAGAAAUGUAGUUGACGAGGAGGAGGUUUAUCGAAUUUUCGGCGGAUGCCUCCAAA

# Variants of: B1
# Measurement protocol: self-cleavage kobs at 160 uM GlcN6P; higher = faster cleavage; RNA array
# Experimental conditions: with glucosamine-6-phosphate
Variants at the floor of the assay were thinned out.
self-cleavage kobs at 160 uM GlcN6P for assorted variants
Value kind: self-cleavage kobs at 160 uM GlcN6P (s⁻¹)

INSERT INTO assay_data (variant_name, comparison_sign, endpoint_value) VALUES
  ('C10A A12G C16A U47C G63A C67G', '<', '1e-05'),
  ('A14G C68A', '=', '2.91e-05'),
  ('U30C C67U', '=', '3.33e-05'),
  ('U46G C70A', '=', '4.54e-05'),
  ('G29A U49A', '<', '1e-05'),
  ('G7C A53C', '<', '1e-05'),
  ('G35A G44U U65A C70G', '<', '1e-05'),
  ('A12U A48G', '=', '2.8e-05'),
  ('A6G G51A', '<', '1e-05'),
  ('U49G G51C C61U G63A', '<', '1e-05'),
  ('G40C G44A', '<', '1e-05'),
  ('A39G U45G', '=', 0.00207),
  ('A33C G38U', '<', '1e-05'),
  ('U30G U69G', '=', '5.83e-05'),
  ('C16U C34U', '<', '1e-05'),
  ('A39G A53U', '=', 0.00271),
  ('G37A C71U', '=', 0.000172),
  ('U31C U54C C67U', '=', '8.1e-05'),
  ('G37C G43C U47C', '<', '1e-05'),
  ('G37A A42G', '=', 0.000301),
  ('C16U A53C', '=', 0.000234),
  ('U31G U55G U56C', '=', '7.22e-05'),
  ('U47G U65G', '=', 0.000153),
  ('G35C A64G', '<', '1e-05'),
  ('C16G U65G', '=', '6.11e-05'),
  ('U54G C67U', '=', 0.000612),
  ('U47G A53G', '=', 0.000975),
  ('U54C C71U', '=', 0.00142),
  ('C34G U47G C58A C68A', '=', '6.99e-05'),
  ('C16G G59C A64C', '<', '1e-05'),
  ('G32A U56A', '=', '4.57e-05'),
  ('A42C C58A', '<', '1e-05'),
  ('U56C U69C C70A', '<', '1e-05'),
  ('A33C G35C', '<', '1e-05'),
  ('C58G U69G', '=', '6.03e-05'),
  ('A42G C70A', '=', '6.35e-05'),
  ('A53C G60U A64U U65G', '<', '1e-05'),
  ('C50U A52C', '<', '1e-05'),
  ('A6G G60C', '<', '1e-05'),
  ('U54G U56C', '=', 0.000146),
  ('A6G A39U', '=', '2.95e-05'),
  ('G13C A48G C71U', '<', '1e-05'),
  ('G44A U47C', '<', '1e-05');
